# Study conditions: in methanol, 318.15 K
Property measured: solubility (mole fraction)

CC1=C[C@H](O)CC(C)(C)[C@H]1/C=C/C(C)=C/C=C/C(C)=C/C=C/C=C(C)/C=C/C=C(C)/C=C/C1=C(C)C[C@@H](O)CC1(C)C :: 0.000166

* * *

# Study conditions: in methanol, 283.15 K
Property measured: solubility (mole fraction)

CC1=C[C@H](O)CC(C)(C)[C@H]1/C=C/C(C)=C/C=C/C(C)=C/C=C/C=C(C)/C=C/C=C(C)/C=C/C1=C(C)C[C@@H](O)CC1(C)C :: 2.84e-05

* * *

# Study conditions: in ethanol, 278.15 K
Property measured: solubility (mole fraction)

CC1=C[C@H](O)CC(C)(C)[C@H]1/C=C/C(C)=C/C=C/C(C)=C/C=C/C=C(C)/C=C/C=C(C)/C=C/C1=C(C)C[C@@H](O)CC1(C)C :: 1.75e-05
